Biological target: T1, P6A-bP
T1 chain: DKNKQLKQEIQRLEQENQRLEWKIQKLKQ
Assay: two-hybrid library CCNG1;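 also: natural log of median RNA to DNA barcode read ratio; higher means stronger binding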
VALUE_TYPE: interaction score

Sample answers from the record:
DENKQLEQKIQRLKQKNQRLKWEIQKLEQ [P5A-bP] = 1.7
DKNKQLKQKIQRLKQKIQRLKWENQKLEQ [P12A-bP] = -1.09
DKNKQLKQEIQRLEQENQRLEWKIQKLKQ [P6A-bP] = -0.494

(P) DENKQLEQEIQRLEQEIQRLEWKNQKLKQ [P11A-bP]
(Q) DEIKQLEQEIQRLEQKNQRLKWKNQKLKQ [P3A-bP]
(R) DKIKQLKQKNQRLKQKNQRLKWKIQKLKQ [P2A-bP]
Order the records by interaction score, with each subsequent value no larger than the one before. Note for the reader: the ranking is given by listing the labels in the order requested. P, Q, R
(P: 0, Q: -0.316, R: -0.533)

(a) DKNKQLKQENQRLEQKIQRLKWKIQKLKQ [P10A-bP]
(b) DEIKQLEQENQRLEQENQRLEWEIQKLEQ [P1A-bP]
Kindly identify the item with the lower interaction score figure among these two: a and b Answer by quoting the chosen item's label. a

Source of measurements: paper PMC10397247
